Measured Cmax, listed per entry for reference.
# assay info: Pharmacokinetics in mice (blood, UPLC-MS/MS)
# Format: in vivo, mouse
# test context: mouse, whole blood, po; male C57Bl/6 mice, orally 10 mg/kg by gavage, blood

# mol, Cmax [ng/mL]
data = [
    ("O=C(O)[C@@H]1CCCN(S(=O)(=O)c2ccccc2C(F)(F)F)C1", 15600),
    ("O=C(O)[C@H]1CCCN(S(=O)(=O)c2ccccc2C(F)(F)F)C1", 33500),
]

###

# assay info: Pharmacokinetics in mice (blood, UPLC-MS/MS)
# Format: in vivo, mouse
# test context: mouse, whole blood; male C57Bl/6 mice, intravenously 2 mg/kg or orally 10 mg/kg, blood; read-out: Volume of distribution (Vz)
Measured Vd, listed per entry for reference.

# mol, units, Vd
records = [
    ("O=C(O)[C@H]1CCCN(S(=O)(=O)c2ccccc2C(F)(F)F)C1", "L/kg", 0.49),
    ("O=C(O)[C@@H]1CCCN(S(=O)(=O)c2ccccc2C(F)(F)F)C1", "L/kg", 0.38),
]
